The reported numbers originate from paper PMC7582602.

Provide the reported melting point of each item.

Hello, please tell me recorded melting point for this one: CC(Oc1ccc(CCc2ccccc2)cc1)C(=O)O (racemic) 106 to 107 °C

Hello, please tell me recorded melting point for this one: COc1ccc(C=CC(=O)N[C@@H](Cc2ccc(O)cc2)C(=O)O)cc1OC 105 to 108.5 °C

Hello, please tell me recorded melting point for this one: O=C(O)COc1ccc(CCc2ccccc2)cc1 130 to 131 °C

Hello, please tell me recorded melting point for this one: O=C(O)COc1ccc(Cc2ccccc2)cc1 117 to 118 °C

Hello, please tell me recorded melting point for this one: O=C(C=Cc1ccc(O)c(O)c1)N[C@@H](Cc1ccccc1)C(=O)O 198 to 199 °C

Hello, please tell me recorded melting point for this one: CC(Oc1ccc(Cc2ccccc2)cc1)C(=O)O (racemic) [Compound 13, (R,S)-2-(4-benzyl)-phenoxypropanoic acid] 102 to 104 °C
